// data source = patent US20120172293A1

# ASSAYED TARGET: human Y2 receptor (human) (UniProt P49146)
# Sequence (P49146 whole entry): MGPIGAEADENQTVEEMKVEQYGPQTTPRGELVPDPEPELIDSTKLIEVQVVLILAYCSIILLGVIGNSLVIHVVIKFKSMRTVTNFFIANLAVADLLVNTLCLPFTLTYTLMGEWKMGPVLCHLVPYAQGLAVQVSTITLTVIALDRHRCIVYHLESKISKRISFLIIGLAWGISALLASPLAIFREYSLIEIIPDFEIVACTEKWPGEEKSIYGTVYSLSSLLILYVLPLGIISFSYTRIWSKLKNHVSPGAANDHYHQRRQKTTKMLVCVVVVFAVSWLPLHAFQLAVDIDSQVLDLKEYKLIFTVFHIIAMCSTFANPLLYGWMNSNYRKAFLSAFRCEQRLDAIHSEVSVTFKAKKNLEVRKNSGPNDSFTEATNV
# PROTOCOL DESCRIPTION: RBA: displacement of [125I]-PYY from hY2R/CHO membranes
Non-standard residues stand in square brackets, D forms with d. 4Pal = N[C@@H](Cc1ccncc1)C(=O)O; Cha = N[C@@H](CC1CCCCC1)C(=O)O; dIva = CC[C@@](C)(N)C(=O)O; Aib = CC(C)(N)C(=O)O
OBSERVATION TYPE: IC50 Ratio (IC50 compound/IC50 PYY(3-36))

BINDER | READING
Ac-S[dIva]R[4Pal][Cha][Aib]NK[Aib]TRQR[Cha]-NH2 (SMILES CC[C@@](C)(NC(=O)[C@H](CO)NC(C)=O)C(=O)N[C@@H](CCCNC(=N)N)C(=O)N[C@@H](Cc1ccncc1)C(=O)N[C@@H](CC1CCCCC1)C(=O)NC(C)(C)C(=O)N[C@@H](CC(N)=O)C(=O)N[C@@H](CCCCN)C(=O)NC(C)(C)C(=O)N[C@H](C(=O)N[C@@H](CCCNC(=N)N)C(=O)N[C@@H](CCC(N)=O)C(=O)N[C@@H](CCCNC(=N)N)C(=O)N[C@@H](CC1CCCCC1)C(N)=O)[C@@H](C)O) [Ac-[D-Iva24, Pya(4)26, Cha27,36, Aib28,31, Lys30]-PYY(23-36)] | 0.39
